test: CellTiter-Glo cell viability; assay type: cell-based; conditions: human, p53_construct WT; Compound_conc 1.5625; CTG 4 days; read-out: mean (normalized viability)
endpoint-name: viability at 4 days (%)
Give your result in % as a bare value.

## Input State its viability at 4 days for this compound: CC[C@@H]1C(=O)N(C)c2cnc(Nc3ccc(C(=O)NC4CCN(C)CC4)cc3OC)nc2N1C1CCCC1
## Output 105

----------
assay: CellTiter-Glo cell viability; assay type: cell-based; settings: human, MCF7 cells, Concentration 2500, 4 day, read-out: mean_norm (normalized viability)
endpoint-name: viability at 4 day (%)
Give your result in % as a bare value.

## Input State its viability at 4 day for this molecule: CC[C@@H]1C(=O)N(C)c2cnc(Nc3ccc(C(=O)NCCOCCOCCOCCOCCC(=O)N4CCC(Nc5cccc6c5cc(C#CCNc5ccc(S(C)(=O)=O)cc5OC)n6CC(F)(F)F)CC4)cc3OC)nc2N1C1CCCC1
## Output 64.8

----------
experiment: CellTiter-Glo cell viability; format: cell-based; details: human, MFE319 cells, p53-01 Concentration (µM) 0.078125; No PMV6; read-out: viability, replicates (sheet 4G)
endpoint-name: viability at 0.078125 µM (%)
Give your result in % as a bare value.

## Input State its viability at 0.078125 µM for this compound: CC[C@@H]1C(=O)N(C)c2cnc(Nc3ccc(C(=O)NCCOCCOCCOCCOCCC(=O)N4CCC(Nc5cccc6c5cc(C#CCNc5ccc(S(C)(=O)=O)cc5OC)n6CC(F)(F)F)CC4)cc3OC)nc2N1C1CCCC1
## Output 99.7

----------
test: CellTiter-Glo cell viability; format: cell-based; settings: human, DU145 cells, Concentration 1250, 4 day, read-out: mean_norm (normalized viability)
endpoint-name: viability at 4 day (%)
Give your result in % as a bare value.

## Input State its viability at 4 day for this molecule: CC[C@@H]1C(=O)N(C)c2cnc(Nc3ccc(C(=O)NCCOCCOCCOCCOCCC(=O)N4CCC(Nc5cccc6c5cc(C#CCNc5ccc(S(C)(=O)=O)cc5OC)n6CC(F)(F)F)CC4)cc3OC)nc2N1C1CCCC1 [p53-01, PMV6-PEG4-BI2536]
## Output 98.7

----------
assay: CellTiter-Glo cell viability; assay type: cell-based; conditions: human, p53_construct Mut; Compound_conc 100; CTG 4 days; read-out: mean (normalized viability)
endpoint-name: viability at 4 days
Reply with a number, then the unit it belongs to.

## Input State its viability at 4 days for this compound: CC[C@@H]1C(=O)N(C)c2cnc(Nc3ccc(C(=O)NC4CCN(C)CC4)cc3OC)nc2N1C1CCCC1
## Output 41.4%

----------
Assay: CellTiter-Glo cell viability
Type: cell-based
Details: human, Huh7 cells, Concentration 78.125, 4 day, read-out: mean_norm (normalized viability)
Procedure: Cells were plated in 384-well plates (typically 1,500 cells per well) with varying concentrations of compounds, with a total volume of 50 μl per well. CTG reagent was added (25 μl) to the solutions, mixed and read out using an EnVision 2105 multimode plate reader.
endpoint-name: viability at 4 day (%)
Give your result in % as a bare value.

## Input State its viability at 4 day for this molecule: CC[C@@H]1C(=O)N(C)c2cnc(Nc3ccc(C(=O)NCCOCCOCCOCCOCCC(=O)N4CCC(Nc5cccc6c5cc(C#CCNc5ccc(S(C)(=O)=O)cc5OC)n6CC(F)(F)F)CC4)cc3OC)nc2N1C1CCCC1
## Output 104

----------
experiment: CellTiter-Glo cell viability; type: cell-based; conditions: human, DU145 cells, Concentration 312.5, 4 day, read-out: mean_norm (normalized viability)
endpoint-name: viability at 4 day (%)
Give your result in % as a bare value.

## Input State its viability at 4 day for this compound: CC[C@@H]1C(=O)N(C)c2cnc(Nc3ccc(C(=O)NCCOCCOCCOCCOCCC(=O)N4CCC(Nc5cccc6c5cc(C#CCNc5ccc(S(C)(=O)=O)cc5OC)n6CC(F)(F)F)CC4)cc3OC)nc2N1C1CCCC1
## Output 96.2

----------
test: CellTiter-Glo cell viability; format: cell-based; settings: human, DU145 cells, Concentration 5000, 4 day, read-out: mean_norm (normalized viability)
endpoint-name: viability at 4 day (%)
Give your result in % as a bare value.

## Input State its viability at 4 day for this molecule: CC[C@@H]1C(=O)N(C)c2cnc(Nc3ccc(C(=O)NCCOCCOCCOCCOCCC(=O)N4CCC(Nc5cccc6c5cc(C#CCNc5ccc(S(C)(=O)=O)cc5OC)n6CC(F)(F)F)CC4)cc3OC)nc2N1C1CCCC1 [p53-01, PMV6-PEG4-BI2536]
## Output 91.3

----------
experiment: CellTiter-Glo cell viability; assay type: cell-based; conditions: human, Huh7 cells, Concentration 10000, 4 day, read-out: mean_norm (normalized viability)
endpoint-name: viability at 4 day
Reply with a number, then the unit it belongs to.

## Input State its viability at 4 day for this compound: CC[C@@H]1C(=O)N(C)c2cnc(Nc3ccc(C(=O)NCCOCCOCCOCCOCCC(=O)N4CCC(Nc5cccc6c5cc(C#CCNc5ccc(S(C)(=O)=O)cc5OC)n6CC(F)(F)F)CC4)cc3OC)nc2N1C1CCCC1
## Output 102%

----------
assay: CellTiter-Glo cell viability; format: cell-based; conditions: human, BxPC-3 cells, BXPC3; Concentration 39.0625; 4 day; read-out: mean_norm (normalized viability)
endpoint-name: viability at 4 day (%)
Give your result in % as a bare value.

## Input State its viability at 4 day for this compound: CC[C@@H]1C(=O)N(C)c2cnc(Nc3ccc(C(=O)NCCOCCOCCOCCOCCC(=O)N4CCC(Nc5cccc6c5cc(C#CCNc5ccc(S(C)(=O)=O)cc5OC)n6CC(F)(F)F)CC4)cc3OC)nc2N1C1CCCC1 [p53-01, PMV6-PEG4-BI2536]
## Output 96

----------
test: CellTiter-Glo cell viability; format: cell-based; details: human, Huh7 cells, Concentration 312.5, 4 day, read-out: mean_norm (normalized viability)
endpoint-name: viability at 4 day (%)
Give your result in % as a bare value.

## Input State its viability at 4 day for this compound: CC[C@@H]1C(=O)N(C)c2cnc(Nc3ccc(C(=O)NCCOCCOCCOCCOCCC(=O)N4CCC(Nc5cccc6c5cc(C#CCNc5ccc(S(C)(=O)=O)cc5OC)n6CC(F)(F)F)CC4)cc3OC)nc2N1C1CCCC1
## Output 104

----------
assay: viability with doxycycline-inducible construct; type: cell-based; conditions: human, dox 1000; Concentration 0.078125; read-out: mean_norm (normalized viability)
endpoint-name: viability (%)
Give your result in % as a bare value.

## Input State its viability for this molecule: CC[C@@H]1C(=O)N(C)c2cnc(Nc3ccc(C(=O)NC4CCN(C)CC4)cc3OC)nc2N1C1CCCC1 [BI2536]
## Output 89.3

----------
test: viability with doxycycline-inducible construct; assay type: cell-based; conditions: human, dox 0; Concentration 2500; read-out: mean_norm (normalized viability)
endpoint-name: viability (%)
Give your result in % as a bare value.

## Input State its viability for this molecule: CC[C@@H]1C(=O)N(C)c2cnc(Nc3ccc(C(=O)NCCOCCOCCOCCOCCC(=O)N4CCC(Nc5cccc6c5cc(C#CCNc5ccc(S(C)(=O)=O)cc5OC)n6CC(F)(F)F)CC4)cc3OC)nc2N1C1CCCC1
## Output 77.5

----------
test: CellTiter-Glo cell viability; type: cell-based; settings: human, MFE319 cells, p53-01 Concentration (µM) 5; No PMV6; read-out: viability, replicates (sheet 4G)
endpoint-name: viability at 5 µM (%)
Give your result in % as a bare value.

## Input State its viability at 5 µM for this molecule: CC[C@@H]1C(=O)N(C)c2cnc(Nc3ccc(C(=O)NCCOCCOCCOCCOCCC(=O)N4CCC(Nc5cccc6c5cc(C#CCNc5ccc(S(C)(=O)=O)cc5OC)n6CC(F)(F)F)CC4)cc3OC)nc2N1C1CCCC1
## Output 30

----------
assay: CellTiter-Glo cell viability; assay type: cell-based; conditions: human, p53_construct WT; Compound_conc 12.5; CTG 4 days; read-out: mean (normalized viability)
endpoint-name: viability at 4 days (%)
Give your result in % as a bare value.

## Input State its viability at 4 days for this molecule: CC[C@@H]1C(=O)N(C)c2cnc(Nc3ccc(C(=O)NC4CCN(C)CC4)cc3OC)nc2N1C1CCCC1
## Output 64.4

----------
assay: CellTiter-Glo cell viability; type: cell-based; details: human, MCF7 cells, Concentration 1250, 4 day, read-out: mean_norm (normalized viability)
endpoint-name: viability at 4 day
Reply with a number, then the unit it belongs to.

## Input State its viability at 4 day for this compound: CC[C@@H]1C(=O)N(C)c2cnc(Nc3ccc(C(=O)NCCOCCOCCOCCOCCC(=O)N4CCC(Nc5cccc6c5cc(C#CCNc5ccc(S(C)(=O)=O)cc5OC)n6CC(F)(F)F)CC4)cc3OC)nc2N1C1CCCC1
## Output 88.6%

----------
assay: CellTiter-Glo cell viability; format: cell-based; conditions: human, p53_construct WT; Compound_conc 100; CTG 4 days; read-out: mean (normalized viability)
endpoint-name: viability at 4 days (%)
Give your result in % as a bare value.

## Input State its viability at 4 days for this molecule: CC[C@@H]1C(=O)N(C)c2cnc(Nc3ccc(C(=O)NC4CCN(C)CC4)cc3OC)nc2N1C1CCCC1
## Output 42

Entry source: paper PMC13128454
